target: UniProt:P35353; test: Displacement of [125I]Tyr0-ovine CRF from CRF1 receptor in rat cortical membrane by gamma counting; format: cell membranes
Sequence (P35353 whole entry): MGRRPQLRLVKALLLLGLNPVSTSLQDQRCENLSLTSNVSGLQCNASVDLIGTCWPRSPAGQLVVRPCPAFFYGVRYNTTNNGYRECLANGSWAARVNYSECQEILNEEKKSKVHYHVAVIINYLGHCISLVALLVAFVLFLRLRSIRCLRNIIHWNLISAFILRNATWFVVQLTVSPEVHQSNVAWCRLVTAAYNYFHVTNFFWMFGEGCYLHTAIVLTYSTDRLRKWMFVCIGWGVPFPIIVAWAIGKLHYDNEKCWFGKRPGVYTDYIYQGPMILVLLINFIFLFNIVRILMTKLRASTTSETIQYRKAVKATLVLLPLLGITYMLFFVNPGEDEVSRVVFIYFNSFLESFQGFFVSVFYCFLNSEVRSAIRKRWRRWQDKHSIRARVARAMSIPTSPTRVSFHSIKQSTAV
pIC50: −log10 of the molar value.
# pIC50 annotations
quantity.kind: pIC50

compound=COCC(COC)Nc1nc(C)nc2c(-c3ccc(Cl)cc3Cl)c(C)nn12 subject_of_test=UniProt:P35353 quantity_kind=pIC50 reported_result=8.38
compound=COCCN(CCOC)c1nc(C)nc2c(-c3c(C)cc(OC)cc3OC)c(C)nn12 subject_of_test=UniProt:P35353 quantity_kind=pIC50 reported_result=8.10
compound=CCC(CC)Nc1nc(C)nc2c(-c3c(C)cc(OC)cc3OC)c(C)nn12 subject_of_test=UniProt:P35353 quantity_kind=pIC50 reported_result=8.30
compound="CCC1CCCCN1c1nc(C)nc2c(-c3c(C)cc(OC)cc3OC)c(C)nn12 (stereo not drawn)" subject_of_test=UniProt:P35353 quantity_kind=pIC50 reported_result=8.49
compound=CCCN(C)c1nc(C)nc2c(-c3c(C)cc(OC)cc3OC)c(C)nn12 subject_of_test=UniProt:P35353 quantity_kind=pIC50 reported_result=8.19
compound=CC[C@@H](C)Nc1nc(C)nc2c(-c3c(C)cc(OC)cc3OC)c(C)nn12 subject_of_test=UniProt:P35353 quantity_kind=pIC50 reported_result=8.36
compound=COCC(COC)Nc1nc(C)nc2c(-c3ccc(OC)cc3C)c(C)nn12 subject_of_test=UniProt:P35353 quantity_kind=pIC50 reported_result=8.01
compound=COc1ccc(-c2c(C)nn3c(N4CCCC4)nc(C)nc23)c(C)c1 subject_of_test=UniProt:P35353 quantity_kind=pIC50 reported_result=7.09
compound=CCCN(CCC#N)c1nc(C)nc2c(-c3ccc(OC)cc3C)c(C)nn12 subject_of_test=UniProt:P35353 quantity_kind=pIC50 reported_result=8.67
compound=CCOCC(COCC)Nc1nc(C)nc2c(-c3ccc(OC)cc3C)c(C)nn12 subject_of_test=UniProt:P35353 quantity_kind=pIC50 reported_result=7.71
compound=CCCCN(CC)c1nc(C)nc2c(-c3ccc(OC)cc3C)c(C)nn12 subject_of_test=UniProt:P35353 quantity_kind=pIC50 reported_result=8.64
compound=COc1ccc(-c2c(C)nn3c(NC4CCC4)nc(C)nc23)c(C)c1 subject_of_test=UniProt:P35353 quantity_kind=pIC50 reported_result=7.61
compound=COc1cc(C)c(-c2c(C)nn3c(NC4CCC4)nc(C)nc23)c(OC)c1 subject_of_test=UniProt:P35353 quantity_kind=pIC50 reported_result=7.76
compound=COCCN(CCOC)c1nc(C)nc2c(-c3c(C)cc(OC)cc3C)c(C)nn12 subject_of_test=UniProt:P35353 quantity_kind=pIC50 reported_result=8.56
compound=CCCN(CCC)c1nc(C)nc2c(-c3c(C)cc(OC)cc3OC)c(C)nn12 subject_of_test=UniProt:P35353 quantity_kind=pIC50 reported_result=8.43
compound=COCCN(CC1CC1)c1nc(C)nc2c(-c3c(C)cc(OC)cc3OC)c(C)nn12 subject_of_test=UniProt:P35353 quantity_kind=pIC50 reported_result=8.74
compound=CCC(CC)Nc1nc(C)nc2c(-c3ccc(OC)c(C)c3C)c(C)nn12 subject_of_test=UniProt:P35353 quantity_kind=pIC50 reported_result=7.95
compound=C=CCN(CC=C)c1nc(C)nc2c(-c3c(C)cc(OC)cc3OC)c(C)nn12 subject_of_test=UniProt:P35353 quantity_kind=pIC50 reported_result=9.00
compound="CCCC(C)Nc1nc(C)nc2c(-c3c(C)cc(OC)cc3OC)c(C)nn12 (stereo not drawn)" subject_of_test=UniProt:P35353 quantity_kind=pIC50 reported_result=8.67
compound=CCN(CCOC)c1nc(C)nc2c(-c3c(C)cc(OC)cc3OC)c(C)nn12 subject_of_test=UniProt:P35353 quantity_kind=pIC50 reported_result=8.75
compound=CCC(CC)Nc1nc(C)nc2c(-c3cc(F)c(OC)cc3Cl)c(C)nn12 subject_of_test=UniProt:P35353 quantity_kind=pIC50 reported_result=9.00
compound=CCN(CC)c1nc(C)nc2c(-c3c(C)cc(OC)cc3OC)c(C)nn12 subject_of_test=UniProt:P35353 quantity_kind=pIC50 reported_result=8.92
compound=CCN(CC)c1nc(C)nc2c(-c3cc(F)c(OC)cc3Cl)c(C)nn12 subject_of_test=UniProt:P35353 quantity_kind=pIC50 reported_result=8.79
